Origin of measurements: patent US8835469B2

- Assayed target: glucokinase (GK) enzyme (Homo sapiens)
- Sequence (P35557 1-465): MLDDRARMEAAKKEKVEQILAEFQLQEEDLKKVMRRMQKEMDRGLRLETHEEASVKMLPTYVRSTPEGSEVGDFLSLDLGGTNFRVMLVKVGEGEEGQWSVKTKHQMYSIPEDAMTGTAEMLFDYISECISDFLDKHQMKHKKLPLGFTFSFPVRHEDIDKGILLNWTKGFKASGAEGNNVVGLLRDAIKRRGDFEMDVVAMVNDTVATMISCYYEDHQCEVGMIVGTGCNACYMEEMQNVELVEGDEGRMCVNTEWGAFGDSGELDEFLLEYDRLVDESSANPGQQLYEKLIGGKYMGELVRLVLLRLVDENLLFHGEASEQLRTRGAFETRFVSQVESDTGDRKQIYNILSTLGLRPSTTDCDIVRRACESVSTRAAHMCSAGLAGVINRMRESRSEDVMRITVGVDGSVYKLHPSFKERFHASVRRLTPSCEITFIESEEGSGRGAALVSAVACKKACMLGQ
- Assay notes: In-vitro glucokinase (GK) activation assay (coupled with glucose-6-phosphate dehydrogenase, absorbance at 340)
- Assay type: biochemical
- Measurement conditions: 10 uM compound; glucose 2.5 mM; read-out: % of GK activity wrt DMSO
Measured metric: activity at 10 µM (%)
Note: unit % is implicit; provide only the numeric part.

# Compound, activity at 10 µM / %
records = [
    ("Cc1nnc(-c2ccc(Oc3cc(O[C@@H]4CCN(C)C4=O)cc(C(=O)Nc4nccs4)c3)cc2)o1 [Example 77]", 261),
    ("Cc1nnc(-c2ccc(Oc3cc(OC4CCN(C)C4=O)cc(C(=O)Nc4nc5ccccc5s4)c3)cc2)o1 (stereo not shown) [Example 14]", 267),
    ("Cc1csc(NC(=O)c2cc(Oc3ccc(-c4nnc(-c5ccccc5)o4)cc3)cc(OC3CCN(C)C3=O)c2)n1 (stereo not shown) [Example 31]", 343),
    ("CCOC(=O)c1csc(NC(=O)c2cc(Oc3ccc(-c4nnc(C)o4)cc3)cc(OC3CCN(C)C3=O)c2)n1 (stereo not shown) [Example 26]", 357),
    ("CCc1nnc(-c2ccc(Oc3cc(OC4CCN(C)C4=O)cc(C(=O)Nc4nccs4)c3)cc2)o1 (stereo not shown) [Example 29]", 347),
    ("CCN1CCC(Oc2cc(Oc3ccc(-c4nnc(C)o4)cc3)cc(C(=O)Nc3nccs3)c2)C1=O (stereo not shown) [Example 35]", 366),
]

Let us examine a further case.
[Q] Recorded activity at 10 µM for Cc1nc(-c2ccc(Oc3cc(OC4CCN(C)C4=O)cc(C(=O)Nc4ncc(C)s4)c3)cc2)no1 (stereo not shown) [Example 23] with glucokinase (GK) enzyme (Homo sapiens), please?
[A] 282

----------
- Assayed target: UniProt:P35557
- Assay notes: In-vitro glucokinase (GK) activation assay (coupled with glucose-6-phosphate dehydrogenase, absorbance at 340)
- Type: biochemical
- Measurement conditions: 5 uM compound; glucose 2.5 mM; read-out: % of GK activity wrt DMSO
- Procedure: The compound of the invention was incubated with glucokinase (GK) enzyme (0.2 units) for 10 minutes in assay buffer at 26° C. After incubation, addition of glucose-6-phosphate dehydrogenase (2.5 units), ATP (1 mM) and glucose (2.5 mM). Absorbance is measured at 340 nm for 15 minutes with 10 second interval using UV transparent plate in kinetic mode on Spectramax-190 at 30° C.
Measured metric: activity at 5 µM (%)
Express your answer in %, writing the number without its unit.

Use the examples below as a reference point.
# Compound, Result
rows = [
    ("Cc1nnc(-c2ccc(Oc3cc(OC4CCN(C)C4=O)cc(C(=O)Nc4nccs4)c3)cc2)o1 (centres unmarked)", 316),
    ("Cc1nnc(-c2ccc(Oc3cc(OC4CCN(C)C4=O)cc(C(=O)Nc4cc(C)n(C(=O)OC(C)(C)C)n4)c3)cc2)o1 (centres unmarked)", 139),
    ("Cc1nnc(-c2ccc(Oc3cc(OC4CCN(C)C4=O)cc(C(=O)Nc4ncccc4O)c3)cc2)o1 (centres unmarked)", 215),
    ("Cc1nnc(-c2ccc(Oc3cc(OC4CCN(C(C)C)C4=O)cc(C(=O)Nc4nccs4)c3)cc2)o1 (centres unmarked)", 253),
]

Let us examine a further case.
[Q] What value of activity at 5 µM has been recorded for this entry: CCc1nnc(-c2ccc(Oc3cc(OC4CCN(C)C4=O)cc(C(=O)Nc4nccs4)c3)cc2)o1 (centres unmarked)
[A] 335
